Test system: NCI-H522 lung
protocol details: NCI tumour cell line growth inhibition, 48 h
attribute measured: TGI

Some solved entries appear below for comparison.
COc1cccc(N=Cc2cc3cc(Br)ccc3nc2Cl)c1 : > 50 µM
c1ccc([P+](Cc2ccc(C[P+](c3ccccc3)(c3ccccc3)c3ccccc3)cc2)(c2ccccc2)c2ccccc2)cc1 : > 100 µM
O=C(COc1ccc2c(=O)cc(-c3ccccc3)oc2c1)N1CCN(c2ccccc2)CC1 : 93.8 µM
CCCNC(=O)c1cc(NC(=O)c2cc(NC(=O)/C=C/c3ccccc3)c(OC)c(OC)c2)c(OC)c(OC)c1 : 23.1 µM
CCOC(=O)C1=[N+]([O-])OC2=C(O)CCCC21 (centres undefined) : > 100 µM
Nc1nc2c(c3ncncc13)C(c1cccc(C(F)(F)F)c1)Cc1ncncc1-2 (centres undefined) : 26.1 µM
N#C/C(=C\c1ccc(O)c(O)c1)C(N)=S : 75.9 µM
Cc1c(C(=O)C/C(=N\O)C(=O)Nc2cc(Cl)c(Cl)cc2Cl)[n+](=O)c2ccccc2n1[O-] : 16.2 µM
COc1cc(C(=O)C/C(CCCC(=O)Nc2ccccc2[N+](=O)[O-])=N/NC(=O)c2cc3ccccc3cc2O)ccc1O : > 100 µM
CC(NNC(=O)c1ccncc1)c1ccc(F)cc1 (centres undefined) : > 100 µM

Exercise: Respond only with TGI recorded for `O=C(N/C(=C\c1ccc2c(c1)OCO2)c1nc2ccccc2[nH]1)c1ccccc1`
Key: 61 µM

Exercise: Let me know recorded TGI for `O=C(/C=C/c1csc(-c2ccccc2)n1)NCc1ccc(C(=O)NCCc2ccccc2)cc1` , thanks.
Key: > 100 µM

---

Measured TGI, listed per entry for reference.
Tested on: SW-620 colon
protocol details: NCI tumour cell line growth inhibition, 48 h

Solved cases below.
COc1cc(/C=C/c2cc(O)c3cc(C(C)=O)c(=O)oc3c2)cc2c1O[C@]1(C)CC[C@@H](O)C(C)(C)[C@H]1C2 : > 34.7 µM
CCSCCC(N)C(=O)O (stereo not drawn) : > 100 µM
CC1CNc2ccccc2N=C1NN (stereo not drawn) : > 100 µM
COc1ccc(-c2nc3sc4c(c3c(=O)[nH]2)CCCCCC4)cc1 : > 33.2 µM
COC(=O)C1=CC2CCCC1(O)C(C(C)=O)C2 (stereo not drawn) : > 100 µM

Exercise: # return recorded TGI for entry CCCC(=O)OC1C(C(O)CO)OC2OC(C)(C)OC21 (stereo not drawn)
Key: > 100 µM

Exercise: Identify measured TGI corresponding to CC1C=C(OC(=O)c2ccccc2)C(=O)C(n2cc(F)c(=O)[nH]c2=O)O1 (stereo not drawn)
Key: > 100 µM

Exercise: Please report TGI for the following compound: `CCc1ccccc1NC(=O)C(=O)CC(=O)c1sc(Nc2ccccc2)nc1C`
Key: > 100 µM

---

Reported TGI is given for each of the following molecules.
Tested on: NCI-H23 lung
protocol details: NCI tumour cell line growth inhibition, 48 h

Guide cases for TGI, answers given:
Cc1csc(=S)n1OC(=O)NC1CCCCC1 : > 47.3 µM
CCS(=O)(=O)Nc1ccc(Nc2c3ccccc3nc3ccccc23)c(OC)c1 : 3.79 µM
CC(=O)OCC1OC(SC2=N/C(=C\c3cc4c(=O)c5ccccc5sc4s3)C(=O)N2c2ccccc2)C(OC(C)=O)C(OC(C)=O)C1OC(C)=O (stereo not given) : > 100 µM
O=C(C1OC1c1ccc(O)cc1)C12CC3CC(CC(C3)C1)C2 (stereo not given) : > 100 µM
C#CCOCn1cnc2c(Cl)ncnc21 : > 100 µM

Exercise: # return recorded TGI for entry `O=[N+]([O-])c1ccc(-c2nnc(C34CC5CC(CC(C5)C3)C4)o2)cc1`
Key: > 100 µM

Exercise: Indicate the recorded TGI value for this molecule: `Cc1ccc(C(=O)c2nnc(C(=O)c3ccc(C)cc3)nn2)cc1`
Key: > 100 µM

Exercise: For the molecule CC(=O)N1C(Nc2ccccn2)CCN1c1ccccc1 (stereo not given) , give its measured TGI value.
Key: > 10 µM

Exercise: Complete the entry with TGI for C=CC/C=C/Cc1csc(C(C)(C)C(O)C/C=C/C(=C)CCNC(=O)OC)n1 (stereo not given)
Key: > 100 µM

Exercise: Report TGI for CC[C@@H](C(=O)O)C1CC[C@H](C)C([C@@H](C)[C@H](O)[C@H](C)C(=O)[C@H](CC)C2O[C@]3(C=C[C@@H](O)[C@]4(CC[C@@](C)(C5CC[C@](O)(CC)[C@H](C)O5)O4)O3)[C@H](C)C[C@@H]2C)O1 (stereo not given in full)
Key: 5.76 µM

Exercise: Dear colleague, please send me the reported TGI for CCOC(=O)COc1ccccc1/C=C1\CCC(CN(C)C)C1=O (stereo not given) when you can.
Key: 19.3 µM

Exercise: Assign TGI to the following record: CN(C)CCCNC(CC#N)CCC#N (stereo not given)
Key: > 10 µM

Exercise: Using known records, supply TGI for `CCOC(=O)N/N=C(/OCC)c1ccccc1`
Key: > 100 µM

Exercise: Identify the reported TGI for the following entry. CC1SC(c2ccccc2)N(CCc2cccs2)C1=O (stereo not given)
Key: 15.1 µM

Exercise: Specify TGI for O=C1CC(c2ccc(O)cc2)C2(O1)C(=O)OC(C(O)CO)C2O (stereo not given) and stop.
Key: > 100 µM
